Data origin, for the record: PubChem BioAssay (NCI)

system: NCI-H226 lung; assay: NCI tumour cell line growth inhibition, 48 h
MEASURED_QUANTITY: TGI

>>> value_observed("CSc1ccc2c(cc1=O)[C@@H](NC(=O)c1cc(O)c(O)c(O)c1)CCc1cc(O)c(O)c(O)c1-2")
"35 µM"
>>> value_observed("NC(=O)CNc1ccc([As]=[As]c2ccc(NCC(N)=O)cc2)cc1 (stereo not given)")
"22.8 µM"
>>> value_observed("Cc1c2ccc3ccccc3c2c[n+]2ccccc12")
"20.1 µM"
>>> value_observed("C=C1CC[C@H]2C(=O)OC(c3ccoc3)C[C@]2(C)C/C=C\\C=C/1C(=O)OC (stereo not given in full)")
"> 25 µM"
>>> value_observed("C=C1C(O)C2C(=C(C)C13CC3)C(=O)C(C)(C)C2OC (stereo not given)")
"> 100 µM"
>>> value_observed("O=C1CCSCCC(=O)Nc2ccccc2N1")
"> 100 µM"
>>> value_observed("CN1C(NNC(=O)c2cccnc2)=NS(=O)(=O)c2cc(Cl)ccc21")
"> 100 µM"
>>> value_observed("Cc1nc2ccc(S(=O)(=O)Nc3nccs3)cc2c(=O)n1NS(=O)(=O)c1nccs1")
"> 100 µM"
>>> value_observed("Cc1ccc2[c](c1)[Sn]([c]1ccccc1)([c]1ccccc1)[c]1cc(C)ccc1N2C")
"> 100 µM"
>>> value_observed("COc1ccc(C2(CC(C)C)CCN(S(=O)(=O)c3ccc(C)cc3)C2)cc1OC (stereo not given)")
"> 100 µM"

###

tested on: SN12C renal; assay: NCI tumour cell line growth inhibition, 48 h
MEASURED_QUANTITY: TGI

>>> value_observed("O=C1/C(=C\\c2cccc(Oc3ccccc3)c2)S(=O)(=O)C(c2ccccc2)N1c1cccc(Cl)c1 (stereo not given)")
"> 100 µM"
>>> value_observed("CS(=O)(=O)N1CC(CCl)c2ccc(O)cc21 (stereo not given)")
"14.5 µM"
>>> value_observed("O=C1C2[C@@H](C(=O)N1c1ccc(Br)cc1)C13C(=CC2([N+](=O)[O-])[C@@H]2C(=O)N(c4ccc(Br)cc4)C(=O)[C@@H]21)c1ccccc1N3c1ccccc1 (stereo not given in full)")
"> 100 µM"
>>> value_observed("COc1cc2c3c(n(CCCN(C)CCO)c(=O)c2cc1OC)-c1cc2c(cc1C3=O)OCO2")
"> 100 µM"
>>> value_observed("Cc1n[n+](Cc2ccccc2)c2sc(N)nn12")
"> 100 µM"
>>> value_observed("CCOC(=O)c1ccc(-c2ccc(Cl)cc2)[nH]1")
"> 10 µM"
>>> value_observed("CC1(C)OP(=O)(O)C=C1Sc1ccc([N+](=O)[O-])cc1[N+](=O)[O-]")
"> 100 µM"
>>> value_observed("CN(C)CCCNc1ccc2ncn3c4ccc(O)cc4c(=O)c1c23")
"16.2 µM"
>>> value_observed("COc1ccc2nc3cc(Cl)ccc3c(Sc3ccc(NC(C)=O)cc3)c2c1")
"> 25.6 µM"
>>> value_observed("O=C1c2ccc3c4ccccc4n(-c4ccccc4)c3c2C(=O)N1c1ccc(Cl)cc1")
"> 100 µM"
>>> value_observed("COc1ccc(-c2nn(-c3cccc(Cl)c3)cc2-c2nc(N)[nH]c(=O)c2C#N)cc1")
"> 100 µM"
>>> value_observed("CC1(C)O[C@H]2OC(CO)C(N=[N+]=[N-])[C@H]2O1 (stereo not given in full)")
"> 100 µM"
>>> value_observed("CSc1ccc2c(cc1=O)[C@@H](NC(=O)c1cc(O)c(O)c(O)c1)CCc1cc(O)c(O)c(O)c1-2")
"34.5 µM"
>>> value_observed("CCC[CH2][Sn]1([CH2]CCC)[O]CC(COc2c(Cl)cc(Cl)cc2Cl)[O]1 (stereo not given)")
"3.27 µM"
>>> value_observed("CCOP(=O)(OCC)/C(C#N)=C/c1ccc(-c2cc(C(F)(F)F)cc(C(F)(F)F)c2)o1")
"29.1 µM"
>>> value_observed("O=C(NC1CCCCC1)c1ccc(Nc2ncnc3c2cnn3-c2ccccc2)cc1")
"> 100 µM"
>>> value_observed("NCCCN(CCCN)CCc1cn(C(=O)c2ccccc2)cn1")
"26.2 µM"
>>> value_observed("C=C1C(O)C2C(=C(C)C13CC3)C(=O)C(C)(C)C2OC (stereo not given)")
"> 100 µM"
>>> value_observed("C[P+](C)(C)c1ccccc1")
"> 100 µM"
>>> value_observed("CNC(C)[C@H]1CCC2C3CC=C4C(=O)[C@@H](NC(=O)C=C(C)C)CC[C@]4(C)C3CC[C@@]21C (stereo not given in full)")
"10.5 µM"

###

system: MOLT-4 leukemia; assay: NCI tumour cell line growth inhibition, 48 h
MEASURED_QUANTITY: GI50

>>> value_observed("O=C(NNc1cnccn1)c1nc2cc(F)ccc2n2cccc12")
"340 nM"
>>> value_observed("C=CCn1c(SCC(=O)Nc2ccc(C(=O)/C=C/c3cc(OC)c(OC)c(OC)c3)cc2)nnc1-c1ccc(OC)cc1")
"378 nM"
>>> value_observed("CCOC(=O)C1=C(N)Oc2c(sc3c(C)cccc23)C1c1ccc(F)cc1 (stereo not given)")
"1880 nM"
>>> value_observed("COC(=O)[C@]12CC[C@@H](C)[C@H](C)[C@@H]1C1=CC[C@@H]3[C@@]4(C)C(C=O)=C[C@@](C)(COC(=O)c5ccco5)[C@@H]4[C@H](O)C[C@@]3(C)[C@]1(C)CC2")
"2290 nM"
>>> value_observed("COc1cc2c3c(n(CCCN(C)CCO)c(=O)c2cc1OC)-c1cc2c(cc1C3=O)OCO2")
"< 13 nM"
>>> value_observed("NCCCOc1cc(Cl)ccc1NC(=O)c1cc2ccccc2cc1OCCCN")
"1510 nM"
>>> value_observed("Oc1ccc(Oc2cnc3ccccc3n2)cc1")
"41400 nM"
>>> value_observed("COc1ccc(-c2ccc(NNC(=O)c3ccc(F)cc3)nn2)cc1OC")
"40600 nM"
>>> value_observed("NC(=O)CNc1ccc([As]=[As]c2ccc(NCC(N)=O)cc2)cc1 (stereo not given)")
"9290 nM"
>>> value_observed("COc1ccc(-c2noc(N)c2-c2cc(OC)c3c(c2)OCO3)cc1")
"1980 nM"

###

tested on: OVCAR-5 ovarian; experiment: NCI tumour cell line growth inhibition, 48 h
MEASURED_QUANTITY: TGI

>>> value_observed("CC(Cl)CN1c2ccccc2Sc2ccc(Cl)cc21 (centres undefined)")
"> 10 µM"
>>> value_observed("CCCCCCc1cc2cc(C(=O)Nc3ccc(F)cc3)c(=N)oc2cc1O")
"> 100 µM"
>>> value_observed("c1ccc2c3[nH]c(c2c1)=Nc1ccc(cc1)-c1nc2ccc(cc2o1)N=c1[nH]c(c2ccccc12)=Nc1ccc2nc(oc2c1)-c1ccc(cc1)N=3")
"> 100 µM"
>>> value_observed("CC(=O)NC1C(Sc2ncn(C3OC(CO)C(O)C(O)C3NC(C)=O)n2)OC(CO)C(O)C1O (centres undefined)")
"> 100 µM"
>>> value_observed("O=C(NCCN1CCOCC1)c1ccc(I)cc1")
"> 100 µM"
>>> value_observed("CC(=O)Nc1c(C(=N)C#N)ncn1CCO")
"> 100 µM"
>>> value_observed("COc1cc(Nc2nc3cc(C(F)(F)F)ccc3nc2C(=O)O)cc(OC)c1OC")
"> 100 µM"
>>> value_observed("COc1cc(/C=C/C(=O)Oc2ccccc2)ccc1C(=O)O/C=C/c1ccccc1")
"> 100 µM"
>>> value_observed("CCOC(=O)CCC(NC(=O)c1ccc(NCc2ccc3nc(-c4ccccc4)c(Cl)nc3c2)cc1)C(=O)OCC (centres undefined)")
"> 100 µM"
>>> value_observed("Cc1c(Cl)cccc1NC(=O)c1cccc([N+](=O)[O-])c1O")
"> 93.8 µM"
>>> value_observed("COc1ccc2nc(-c3ccccc3)c(=O)[nH]c2c1")
"> 100 µM"
>>> value_observed("CCOC(=O)C(C)(c1c(C)[nH]c2ccccc12)c1c(C)[nH]c2ccccc12")
"35.5 µM"
>>> value_observed("CCOC(=O)c1sc2nc(SC)nc(Nc3ccc4c(c3)OCCO4)c2c1N")
"54.7 µM"
>>> value_observed("COc1ccc(-c2nn(-c3cccc(Cl)c3)cc2-c2nc(N)[nH]c(=O)c2C#N)cc1")
"51.4 µM"

###

system: MALME-3M melanoma; test: NCI tumour cell line growth inhibition, 48 h
MEASURED_QUANTITY: TGI

>>> value_observed("O=C1C=CC(=CC=C2C=CN(CCCCCCCCCCC(=O)NCCCCCCCCCCCC(=O)O)C=C2)C=C1")
"> 100 µM"
>>> value_observed("Cc1ccc2[c](c1)[Sn]([c]1ccccc1)([c]1ccccc1)[c]1cc(C)ccc1N2C")
"90.7 µM"
>>> value_observed("CS(=O)(=O)CS(=O)(=O)OCCCl")
"1270 µM"
>>> value_observed("COc1cc2c(cc1OC)C1Cc3cc(OC)c(OC)cc3N1CC2 (configuration not stated)")
"54.4 µM"
>>> value_observed("S=C1NCCN1C(=S)Nc1ccccc1")
"> 100 µM"
>>> value_observed("COc1ccc(/C=C/c2cnccn2)cc1OC")
"> 10 µM"
>>> value_observed("CC(NC(=O)Cc1ccccc1)NC(=O)C(C)C(=O)NCc1ccccc1 (configuration not stated)")
"> 100 µM"
>>> value_observed("NC(N)=N/N=C(\\N=Nc1ccccc1)c1ccc(Cl)cc1")
"17.2 µM"
>>> value_observed("COc1cc2c3c(n(CCCN(C)CCO)c(=O)c2cc1OC)-c1cc2c(cc1C3=O)OCO2")
"> 100 µM"
>>> value_observed("CCOc1cc(NC(C)=O)ccc1C(=O)NNS(=O)(=O)c1ccc(NC(C)=O)cc1")
"> 100 µM"
>>> value_observed("CCOC(=O)C1=C(Nc2ccc(Br)cc2)OCC1=O")
"> 100 µM"
>>> value_observed("C1COCCSC2=C(SCCO1)SC(=C1SC3=C(SCCOCCOCCS3)S1)S2")
"> 100 µM"
>>> value_observed("COc1cc2nc(-c3cccs3)nc(Cl)c2cc1OC")
"> 100 µM"
>>> value_observed("O=C(N[C@@H](Cc1coc2ccccc12)B(O)O)[C@@H]1C[C@H]2CC[C@@H]1O2")
"20.8 µM"
>>> value_observed("CC1(C)O[C@H]2OC(CO)C(N=[N+]=[N-])[C@H]2O1 (some centres not stated)")
"> 100 µM"
>>> value_observed("C/C=C\\C(CC(=O)NCC(=O)c1c[nH]c2ccccc12)CC(=O)OC (configuration not stated)")
"> 100 µM"
>>> value_observed("Cc1ccc(C)c(N2C(=O)C(=O)C(c3nc4ccccc4o3)/C(=N/N)C2=O)c1 (configuration not stated)")
"> 100 µM"
>>> value_observed("Oc1ccc(Oc2cnc3ccccc3n2)cc1")
"> 100 µM"
>>> value_observed("c1ccc2c(c1)c1ccccc1c1ccccc21")
"> 100 µM"
>>> value_observed("O=C1C(Br)=CC2(C=C1Br)CCNC1=C2C(=O)c2ncccc2C1=O")
"2.4 µM"
>>> value_observed("O=C1C=C(Nc2ccc(S(=O)(=O)Nc3nccs3)cc2)c2ccccc2C1=O")
"48.7 µM"
>>> value_observed("C=C(C)[C@@H]1CC[C@]2(C)[C@H](CC[C@@H]3[C@@H]([C@@](C)(O)CCC=C(C)C)CC[C@]32C)[C@@]1(C)CCC(=O)O")
"28.2 µM"
